method: M. smegmatis aryl esterase constructs, peracetic acid when bound to hydroxyapatite particles (Example 10)
Format: biochemical
measurement conditions: 33 mg HAP particles exposed to 10 μM enzyme; 100 mM triacetin, 100 mM H2O2, 30 min, 37° C.; no enzyme 323
Excerpt: […]
Peracetic acid (ppm) On Hydroxyapatite for assorted molecules
quantity: Peracetic acid (ppm) On Hydroxyapatite

# molecule, numeric result
data = [
    ("EZ-40: ArE-link1-DenP308-H6, SEQ ID NO: 464 (protein) MAKRILCFGDSLTWGWVPVEDGAPTERFAPDVRWTGVLAQQLGADFEVIEEGLVARTTNIDDPTDPRLNGASYLPSCLATHLPLDLVIIMLGTNDTKAYFRRTPLDIALGMSVLVTQVLTSAGGVGTTYPAPKVLVVSPPPLAPMPHPWFQLIFEGGEQKTTELARVYSALASFMKVPFFDAGSVISTDGVDGIHFTEANNRDLGVALAEQVRSLLGPGSGGAGSPGSAGGPGSDPTKPPRTPTANTSRPHHNFGSGGGGSPHHHHHH", 2476),
    ("EZ-37: ArE-link1-H6, SEQ ID NO: 461 (protein) MAKRILCFGDSLTWGWVPVEDGAPTERFAPDVRWTGVLAQQLGADFEVIEEGLVARTTNIDDPTDPRLNGASYLPSCLATHLPLDLVIIMLGTNDTKAYFRRTPLDIALGMSVLVTQVLTSAGGVGTTYPAPKVLVVSPPPLAPMPHPWFQLIFEGGEQKTTELARVYSALASFMKVPFFDAGSVISTDGVDGIHFTEANNRDLGVALAEQVRSLLGPGSGGAGSPGSAGGPGSHHHHHH", 927),
    ("EZ-36: M. smegmatis aryl esterase ArE S54V, untargeted, SEQ ID NO: 460 (protein, listed as Mycobacterium smegmatis) MAKRILCFGDSLTWGWVPVEDGAPTERFAPDVRWTGVLAQQLGADFEVIEEGLVARTTNIDDPTDPRLNGASYLPSCLATHLPLDLVIIMLGTNDTKAYFRRTPLDIALGMSVLVTQVLTSAGGVGTTYPAPKVLVVSPPPLAPMPHPWFQLIFEGGEQKTTELARVYSALASFMKVPFFDAGSVISTDGVDGIHFTEANNRDLGVALAEQVRSLL", 452),
]
